# Test system: Lewis lung carcinoma (solid)
# protocol_description: Antitumor effect on mouse experimental tumors (tumor inhibitory ratio by tumor weight)
# Format: in vivo
# assay_conditions: Dose 100 mg/kg, route i.p., schedule 5q2d (days 1, 3, 5, 7 and 9); tumors removed and weighed at day 13; BDF1 male mice
Documented Inhibition Ratio (%) Lewis lung carcinoma (solid) across a set of compounds
Quick note: give the figure in %, leave out the unit.

Sample records with Inhibition Ratio (%) Lewis lung carcinoma (solid):
{"columns": ["mol", "test_result"],
 "data": [
  ["NC(=O)c1[nH]cnc1OC(=O)C=Cc1cccc([N+](=O)[O-])c1", 90],
  ["COc1ccc(C(=O)Oc2nc[nH]c2C(N)=O)cc1OC", 83.1],
  ["COc1cc(C(=O)Oc2nc[nH]c2C(N)=O)ccc1C", 89.4],
  ["NC(=O)c1[nH]cnc1OC(=O)c1ccc(-c2ccccc2)cc1", 77.0]
]}

Then there is this compound:
Field request: Inhibition Ratio (%) Lewis lung carcinoma (solid) | item: NC(=O)c1[nH]cnc1OC(=O)C=Cc1ccc(Cl)cc1
90
